Values compiled from patent US20240409617A1.

# Kd values compiled below
# Target Or System: WT Spike (SARS-CoV2)
Reported Property: Kd (pM)

Binder	Unit Tag	Data Value
S1-RBD-R3-T1-F5 (Ab2-7) scFv-Fc (scFv, V domains shown) VH: QVTLKESGPTRVKPTQTLTLTCTFSGFSLSTTGVGVGWIRQPPGKALEWLALIYWNDDKRYSPSLKSRLTITKDTSKNQVVLTMTNMDPVDTATYYCARISGSGYFYPFDIWGQGTTVTVSS VL: NFMLTQPHSVSESPGKTVTISCTRSSGSIASNYVQWYQQRPGSSPTTVIYEDNQRPSGVPDRFSGSIDSSSNSASLTISGLKAEDEADYYCQSYDSSSLWVFGGGTKLTVL	pM	7.85
Ab_17 scFv-Fc (scFv, V domains shown) VH: QVQLVQSGGGVVQPGRSLRLSCAASGFTFDDYAMHWVRQVPGKGLEWVSGIDWNSGVIGYADSVKGRFTISRDNVKNSLYLQMNSLRTEDSALYYCAKDIGPGGSGSYYAFDIWGQGTTVTVSS VL: QSALTQPASVSGSPGQSITISCTGTSSDVGGSKYVSWYQQHPGKAPKVMIYDVTKRPSGVPDRFSGSKSGNTASLTISGLQAEDEADYYCAAWDDSLNGVVFGGGTKLTVL	pM	6.35
Ab_19 scFv-Fc (scFv, V domains shown) VH: EVQLVESGAEVKKPGESLKISCKGSGYSFTSYWIGWVRQMPGKGLEWMGIIYPGDSDTRYSPSFQGQVTISADKSISTAYLQWSSLKASDTAMYYCARRGDLDAFDIWGQGTMVTVSS VL: QPGLTQPPAASGTPGQRVTVSCSGASANIGSNAVSWFKQFPETAPRLLISGNTHRPSGVPDRVSGSKSGTSASLTISGLQSDDEADYYCAAWDDSLNGYVFGSGTKVTVL	pM	8.9
